Hi there, I'd appreciate the recorded inhibition at 1 µM for every entry that follows.
Biological target: HDAC6 enzyme (Homo sapiens, UniProt Q9UBN7)
Construct: transducing full length HDAC1 and HDAC6 genes into Sf-9 insect cells; GST; purchased SignalChem; host or cells: Sf-9 insect cells
Sequence (Q9UBN7 whole entry): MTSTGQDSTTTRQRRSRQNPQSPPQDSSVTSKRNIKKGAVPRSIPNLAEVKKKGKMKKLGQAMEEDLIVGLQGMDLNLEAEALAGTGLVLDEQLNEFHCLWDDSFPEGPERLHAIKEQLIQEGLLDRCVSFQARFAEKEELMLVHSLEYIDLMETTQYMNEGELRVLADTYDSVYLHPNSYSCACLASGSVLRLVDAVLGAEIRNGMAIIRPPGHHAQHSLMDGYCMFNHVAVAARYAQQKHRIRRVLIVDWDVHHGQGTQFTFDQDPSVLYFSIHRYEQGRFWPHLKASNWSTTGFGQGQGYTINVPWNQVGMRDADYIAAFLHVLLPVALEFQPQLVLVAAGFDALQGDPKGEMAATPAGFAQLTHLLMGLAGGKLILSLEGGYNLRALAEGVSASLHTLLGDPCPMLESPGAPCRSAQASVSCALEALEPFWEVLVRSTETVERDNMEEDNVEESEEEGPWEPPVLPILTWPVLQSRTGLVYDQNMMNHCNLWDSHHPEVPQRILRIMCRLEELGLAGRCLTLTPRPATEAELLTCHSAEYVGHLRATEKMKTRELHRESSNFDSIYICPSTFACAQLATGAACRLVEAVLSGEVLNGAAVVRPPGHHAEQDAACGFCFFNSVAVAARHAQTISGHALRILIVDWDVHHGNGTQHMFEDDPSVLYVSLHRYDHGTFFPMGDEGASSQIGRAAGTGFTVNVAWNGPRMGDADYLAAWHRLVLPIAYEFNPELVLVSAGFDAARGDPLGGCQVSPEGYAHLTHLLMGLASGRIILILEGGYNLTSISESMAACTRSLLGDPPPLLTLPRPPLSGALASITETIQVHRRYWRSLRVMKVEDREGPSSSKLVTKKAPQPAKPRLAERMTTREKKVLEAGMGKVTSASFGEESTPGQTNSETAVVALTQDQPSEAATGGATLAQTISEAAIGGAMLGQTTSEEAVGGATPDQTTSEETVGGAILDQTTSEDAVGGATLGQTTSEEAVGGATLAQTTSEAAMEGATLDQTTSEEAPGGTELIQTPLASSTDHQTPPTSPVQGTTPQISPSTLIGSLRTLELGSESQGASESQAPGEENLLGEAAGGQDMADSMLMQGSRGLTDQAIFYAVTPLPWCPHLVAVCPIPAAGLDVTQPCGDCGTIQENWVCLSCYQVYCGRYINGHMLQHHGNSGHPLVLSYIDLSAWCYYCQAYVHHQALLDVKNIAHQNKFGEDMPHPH
Assay: HDAC1/6 Enzyme Inhibitory Assay (HDAC-Glo I/II Assay kit), HDAC6
Assay type: biochemical
Conditions: 1 μM test compound; wells without enzyme = 100% inhibition; read-out: HDAC6 inhibitory rate (%) (1 μM)
Procedure: HDAC1/6 Enzyme Inhibitory Assay HDAC1 enzyme and HDAC6 enzyme each prepared by transducing full length HDAC1 and HDAC6 genes into Sf-9 insect cells and purifying by GST affinity column were purchased from SignalChem. Using these enzymes, HDAC1 and/or HDAC6 enzyme inhibitory activities of the compound of the present invention were evaluated. […] After reacting at room temperature for 20 min, luminescence level was measured using plate reader Envision (PerkinElmer). […]
Respond with the bare value in %.

Prompt: Request - read-out inhibition at 1 µM | tested on HDAC6 enzyme (Homo sapiens, UniProt Q9UBN7) | compound COC1(C(=O)N[C@@H]2CCCC[C@H]2N2Cc3ccc(-c4noc(C(F)(F)F)n4)cc3C2=O)CCC1
Response: 100

Prompt: Query the reported inhibition at 1 µM for HDAC6 enzyme (Homo sapiens, UniProt Q9UBN7); item: O=C1c2cc(-c3noc(C(F)(F)F)n3)ccc2CN1[C@@H]1CCCC[C@H]1c1ccccc1 (relative stereo)
Response: 98

Prompt: inhibition at 1 µM of CC(C)(C)OC(=O)N[C@@H]1CCC[C@H]1N1Cc2ccc(-c3noc(C(F)(F)F)n3)cc2C1=O on HDAC6 enzyme (Homo sapiens, UniProt Q9UBN7)?
Response: 39

Prompt: Recorded inhibition at 1 µM for CC(C)(C#N)C(=O)N[C@@H]1CCCC[C@H]1N1Cc2ccc(-c3noc(C(F)(F)F)n3)cc2C1=O with HDAC6 enzyme (Homo sapiens, UniProt Q9UBN7), please?
Response: 100

Prompt: Given the entry O=C(N[C@@H]1CCCC[C@H]1N1Cc2ccc(-c3noc(C(F)(F)F)n3)cc2C1=O)N1CCC(F)(F)C1 , what inhibition at 1 µM was observed with HDAC6 enzyme (Homo sapiens, UniProt Q9UBN7)?
Response: 98

Prompt: Item CC(C)(C)OC(=O)N[C@@H]1CCCC[C@H]1N1Cc2ccc(-c3noc(C(F)(F)F)n3)cc2C1=O [Example 26] with HDAC6 enzyme (Homo sapiens, UniProt Q9UBN7) - inhibition at 1 µM?
Response: 98

Prompt: Return inhibition at 1 µM measured with HDAC6 enzyme (Homo sapiens, UniProt Q9UBN7) given this compound: O=C(N[C@@H]1CCCC[C@H]1N1Cc2ccc(-c3noc(C(F)(F)F)n3)cc2C1=O)C1CCCCCO1 (stereo partly shown)
Response: 100
